molecular target: Tryptophan 2,3-dioxygenase (Homo sapiens); test: Inhibition of TDO in human U87 MG cells using L-Trp as substrate after 8 hrs; format: cell-based, U-87MG ATCC
Sequence (P48775 whole entry): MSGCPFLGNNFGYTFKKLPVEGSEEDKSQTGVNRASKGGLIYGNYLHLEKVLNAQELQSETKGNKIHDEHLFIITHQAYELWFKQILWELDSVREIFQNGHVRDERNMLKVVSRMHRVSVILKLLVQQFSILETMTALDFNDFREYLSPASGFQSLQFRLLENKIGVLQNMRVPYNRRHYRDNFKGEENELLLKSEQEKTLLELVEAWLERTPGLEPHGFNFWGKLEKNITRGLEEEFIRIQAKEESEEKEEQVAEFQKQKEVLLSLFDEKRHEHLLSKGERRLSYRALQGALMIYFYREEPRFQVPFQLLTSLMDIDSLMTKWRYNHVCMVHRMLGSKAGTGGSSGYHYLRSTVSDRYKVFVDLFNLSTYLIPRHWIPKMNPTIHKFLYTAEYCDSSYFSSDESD
pIC50: −log10 of the molar value.
quantity.name: pIC50

Cc1ccc2c(c1)C(=O)c1nc3ccccc3c(=O)n1-2 ... 6.74
O=C1c2c(Cl)cccc2-n2c1nc1ccccc1c2=O ... 6.64
O=C1c2ccccc2-n2c1nc1ccc(F)cc1c2=O ... 6.30
O=C1c2ccccc2-n2c1nc1ccccc1c2=O [TRYPTANTHRIN] ... 6.71

a. NS(=O)(=O)NCCNc1nonc1C(=NO)Nc1ccc(F)c(Br)c1 [EPACADOSTAT]
b. O=C1c2cc([N+](=O)[O-])ccc2-n2c1nc1ccccc1c2=O
INPUT: Between the entries labeled a and b , whose measured pIC50 is lower? Your answer should be the label of the entry you select.
OUTPUT: a

###

molecular target: UniProt P48775; assay: Mixed type […] inhibition of recombinant full length C-terminal His-tagged human TDO expressed in Escherichia coli using L-Trp as substrate after 30 mins by Dixon plot analysis
quantity.name: Ki (nM)

Below, 2 compounds whose answers are already recorded.
Cc1ccc2c(c1)C(=O)c1nc3ccccc3c(=O)n1-2 ... 834
O=C1c2cc(F)ccc2-n2c1nc1ccc(F)cc1c2=O ... 1000

I. O=C1c2ccc(Cl)cc2-n2c1nc1ccccc1c2=O
II. O=C1c2ccccc2-n2c1nc1ccc(F)cc1c2=O
INPUT: Between the entries labeled I and II , whose measured Ki is lower? Your answer should be the label of the entry you select.
OUTPUT: II
